Assay: Clinical study Part 1, Regimen A: oral plasma PK and absolute bioavailability of 25 mg OCA tablet
Format: in vivo, human
Settings: male, human; plasma; oral 25 mg OCA; read-out: median tmax
Measurement name: tmax (min)
Return type: number; implicit unit min.

(Q) Requested field: tmax. Item: CC[C@H]1[C@@H](O)[C@@H]2[C@H](CC[C@]3(C)[C@@H]([C@H](C)CCC(=O)O)CC[C@@H]23)[C@@]2(C)CC[C@@H](O)C[C@@H]12
(A) 30

====

Experiment: Clinical study Part 1, Regimen B: IV plasma PK of 100 μg microtracer dose of [14C]-OCA
Assay type: in vivo, human
Details: male, human; plasma [14C]-OCA; 15 minute IV infusion of 100 μg [14C]-OCA; mean (SD), N = 5
Measurement name: AUC0-t (ng·h/mL)
Return type: number; implicit unit ng·h/mL.

(Q) Requested field: AUC0-t. Item: CC[C@H]1[C@@H](O)C2C3CC[C@H]([C@H](C)CCC(=O)O)[C@@]3(C)CCC2[C@@]2(C)CC[C@@H](O)C[C@@H]12 (stereo partly shown) [[^14C]-OCA, [^14C]OCA]
(A) 3.86

====

Assay: Clinical study Part 1, Regimen A: oral plasma PK and absolute bioavailability of 25 mg OCA tablet
Type: in vivo, human
Conditions: male, human; plasma; single oral dose 25 mg OCA tablet; mean (SD), N = 5; read-out: AUC0-t
Measurement name: AUC0-t (ng·h/mL)
Return type: number; implicit unit ng·h/mL.

(Q) Requested field: AUC0-t. Item: CC[C@H]1[C@@H](O)[C@@H]2[C@H](CC[C@]3(C)[C@@H]([C@H](C)CCC(=O)O)CC[C@@H]23)[C@@]2(C)CC[C@@H](O)C[C@@H]12
(A) 144

====

Assay: Clinical study Part 2, Regimen C: plasma PK and metabolite profile after 25 mg oral dose of [14C]-OCA
Type: in vivo, human
Settings: male, human; plasma; 25 mg oral [14C]-OCA; read-out: median tmax
Excerpt: Part 2 also evaluated the extent of distribution of total radioactivity into blood cells, and identified metabolites accounting for more than 10% of circulating total radioactivity. […] Two additional OCA metabolites were identified: OCA-3 glucuronide and OCA-24 glucuronide, based on the metabolite profiling of radioactivity, mass spectrometry, and authentic standards for the glucuronide metabolites. […]
Measurement name: tmax

(Q) Requested field: tmax. Item: CC[C@H]1[C@@H](O)[C@@H]2[C@H](CC[C@]3(C)[C@@H]([C@H](C)CCC(=O)O)CC[C@@H]23)[C@@]2(C)CC[C@@H](O)C[C@@H]12
(A) 1.25 h

====

Assay: Clinical study Part 2, Regimen C: plasma PK and metabolite profile after 25 mg oral dose of [14C]-OCA
Format: in vivo, human
Conditions: male, human; plasma; 25 mg oral dose of [14C]-OCA; mean (SD), N = 8; read-out: AUC0-t
Source text: Part 2 also evaluated the extent of distribution of total radioactivity into blood cells, and identified metabolites accounting for more than 10% of circulating total radioactivity. […] Two additional OCA metabolites were identified: OCA-3 glucuronide and OCA-24 glucuronide, based on the metabolite profiling of radioactivity, mass spectrometry, and authentic standards for the glucuronide metabolites. […]
Measurement name: AUC0-t (ng·h/mL)
Return type: number; implicit unit ng·h/mL.

(Q) Requested field: AUC0-t. Item: CC[C@H]1[C@@H](O)[C@@H]2[C@H](CC[C@]3(C)[C@@H]([C@H](C)CCC(=O)O)CC[C@@H]23)[C@@]2(C)CC[C@@H](O)C[C@@H]12 [OCA]
(A) 475

====

Experiment: Clinical study Part 1, Regimen A: oral plasma PK and absolute bioavailability of 25 mg OCA tablet
Assay type: in vivo, human
Settings: male, human, plasma, oral, 25 mg, ratio of dose normalized AUC oral 25 mg OCA / IV 100 μg [14C]-OCA; mean (SD), N = 5; read-out: F (absolute bioavailability)
Measurement name: bioavailability

(Q) Requested field: bioavailability. Item: CC[C@H]1[C@@H](O)[C@@H]2[C@H](CC[C@]3(C)[C@@H]([C@H](C)CCC(=O)O)CC[C@@H]23)[C@@]2(C)CC[C@@H](O)C[C@@H]12
(A) ~17%

====

Assay: Clinical study Part 1, Regimen A: oral plasma PK and absolute bioavailability of 25 mg OCA tablet
Type: in vivo, human
Settings: male, human; plasma; single oral dose 25 mg OCA tablet; mean (SD), N = 5; read-out: Cmax
Measurement name: Cmax (ng/mL)
Return type: number; implicit unit ng/mL.

(Q) Requested field: Cmax. Item: CC[C@H]1[C@@H](O)[C@@H]2[C@H](CC[C@]3(C)[C@@H]([C@H](C)CCC(=O)O)CC[C@@H]23)[C@@]2(C)CC[C@@H](O)C[C@@H]12
(A) 80.9

====

Test: Clinical study Part 1, Regimen B: IV plasma PK of 100 μg microtracer dose of [14C]-OCA
Assay type: in vivo, human
Settings: male, human, plasma; 15 minute IV infusion of 100 μg [14C]-OCA; mean (SD), N = 5; read-out: Vss (volume of distribution at steady state)
Measurement name: Vd (L)
Return type: number; implicit unit L.

(Q) Requested field: Vd. Item: CC[C@H]1[C@@H](O)C2C3CC[C@H]([C@H](C)CCC(=O)O)[C@@]3(C)CCC2[C@@]2(C)CC[C@@H](O)C[C@@H]12 (stereo partly shown) [[^14C]-OCA, [^14C]OCA]
(A) 210

# credit: patent US11472831B2
